biological target: T1, Goat anti-Human Kappa; test: ELISA, positive control; also: test concentration or dose not given here
T1 construct: Positive control of the ELISA; also called biotinylated goat anti-human kappa light chain
Each entry below carries its reported optical density.

Worked examples follow.
BINDER: 373_D10 (antibody, V domains shown) VH: EVQLLESGGGLVQPGGSLRLSCAASGFTFDSYSMNWVRQAPGKGLEWVSNINYNSGYKGYADSVKGRFTISRDNSKNTLYLQMNSLRAEDTAVYYCARSANWHDTALDYWGQGTLVTVSS VL: DIQMTQSPSSLSASVGDRVTITCRASQSILSYVNWYQQKPGKAPKLLIYAATSRASGVPSRFSGSGSGTDFTLTISSLQPEDFATYYCQQSYDLPLTFGGGTKVEIK
optical density: 3.11 OD
//
BINDER: 374_B04 (antibody, V domains shown) VH: EVQLLESGGGLVQPGGSLRLSCAASGFTFSSYSMNWVRQAPGKGLEWVSNINYNSGYTGYADSVKGRFTISRDNSKNTLYLQMNSLRAEDTAVYYCARSANWHDTALDYWGQGTLVTVSS VL: DIQMTQSPSSLSASVGDRVTITCRASQSIVSYLNWYQQKPGKAPKLLIYAVTSRASGVPSRFSGSGSGTDFTLTISSLQPEDFATYYCQQSYESPLTFGGGTKVEIK
optical density: 3.3 OD
//
BINDER: 373_C08 (antibody, V domains shown) VH: EVQLLESGGGLVQPGGSLRLSCAASGFTFSSYSMNWVRQAPGKGLEWVANINYNGGYTSYADSVKGRFTISRDNSKNTLYLQMNSLRAEDTAVYYCARSANWHDTALDYWGQGTLVTVSS VL: DIQMTQSPSSLSASVGDRVTITCRASQSIISYLNWYQQKPGKAPKLLIYAASSLQSGVPSRFSGSGSGTDFTLTISSLQPEDFATYYCQQSYNNPLTFGGGTKVEIK
optical density: 3.19 OD
//
BINDER: 371_A06 (antibody, V domains shown) VH: EVQLLESGGGLVQPGGSLRLSCAASGFTFSSYGMNWVRQAPGKGLEWVAGINYNGGYTSYADSVKGRFTISRDNSKNTLYLQMNSLRAEDTAVYYCARSANWHDTALDYWGQGTLVTVSS VL: DIQMTQSPSSLSASVGDRVTITCRASQSILTYLNWYQQKPGKAPKLVIYAATSRHSGVPSRFSGSGSGTDFTLTISSLQPEDFATYYCQQSYDSPLTFGGGTKVEIK
optical density: 3.51 OD

# ---- query binder ----
What value of optical density has been recorded for this entry: 372_A04 (antibody, V domains shown) VH: EVQLLESGGGLVQPGGSLRLSCAASGFTFDSYSMNWVRQAPGKGLEWVSGINYNSGYTSYADSVKGRFTISRDNSKNTLYLQMNSLRAEDTAVYYCARSANWHDTALDYWGQGTLVTVSS VL: DIQMTQSPSSLSASVGDRVTITCRASQSILTYLNWYQQKPGKAPKLVIYAATSRASGVPSRFSGSGSGTDFTLTISSLQPEDFATYYCQQSYETPLTFGGGTKVEIK
3.64 OD

Source listed as patent US20210380703A1.
